Tested Target: T1, p5 peptide of EGFL7 (human)
T1 construct: also called Peptide P5
T1 peptide: RACSTYRTIYRTA
Protocol: SPR (Biacore), IgG over immobilized P5 peptide at 37 C;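 further: IgG variants injected at 0.5–1000 nM (2-fold series), 3 min association and 3.5 min dissociation, reference flow cell subtracted, kinetics fitted with a 1:1 Langmuir model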
Quantity Kind: pKd
Answers are plain numbers, as −log10 of the molar value.

- Binder: "18F7.v5 IgG (antibody, V domains shown, IgG; Kabat numbering) VH: EVQLVESGGGLVQPGGSLRLSCAASGYTFIDYYMNWVRQAPGKGLEWVGDINLDNGGTHYNQKFKGRFTISRDKSKNTAYLQMNSLRAEDTAVYYCAREGVYHDYDDYAMDYWGQGTLVTVSS VL: DIQMTQSPSSLSASVGDRVTITCRTSQSLVHINGITYLHWYQQKPGKAPKLLIYRVSNRGSGVPSRFSGSGSGTDFTLTISSLQPEDFATYYCSQSTHVPLTFGQGTKVEIK"
  pKd: 8.57

Can you give me pKd for all of these, one by one?
1. 18F7.v1 IgG (18F7-graft) (antibody, V domains shown, Expressed as IgG) VH: EVQLVESGGGLVQPGGSLRLSCAASGYTFIDYYMNWVRQAPGKGLEWVGDINLDNGGTHYNQKFKGRFTISRDNSKNTLYLQMNSLRAEDTAVYYCAREGVYHDYDDYAMDYWGQGTLVTVSS VL: DIQMTQSPSSLSASVGDRVTITCRTSQSLVHINGITYLHWYQQKPGKAPKLLIYRVSNRFSGVPSRFSGSGSGTDFTLTISSLQPEDFATYYCSQSTHVPLTFGQGTKVEIKR
2. 18F7.v7 IgG (antibody, V domains shown, IgG; Kabat numbering) VH: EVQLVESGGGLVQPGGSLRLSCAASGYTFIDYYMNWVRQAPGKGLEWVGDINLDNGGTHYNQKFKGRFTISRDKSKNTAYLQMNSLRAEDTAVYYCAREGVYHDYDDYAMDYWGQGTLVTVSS VL: DIQMTQSPSSLSASVGDRVTITCRTSQSLVHINGITYLHWYQQKPGKAPKLLIYRVSNRFSGVPSRFSGSGSGTDFTLTISSLQPEDFATYYCAQSTHVPLTFGQGTKVEIK

Output:
1: 8.20; 2: 8.54
